Assay: chemical genetic growth profiling, strain panel (AID 1159580);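 note: tested at 20 µM; growth read once vehicle control cultures reached saturation at 30 °C; 1 = growth at the plate median or of vehicle wells; lower values mean less growth of the strain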
Conditions: S. cerevisiae deletion strains, growth OD, locus YDR318W, strain mcm21, stronger effect = lower value
The campaign covered roughly 5,500 compounds. About 2,000 (36%) were called active. Inconclusive results (about 18%) are left out. The list shows a part of the results.
The entries below are paired with their reported normalized growth.

compound	normalized growth
COc1cc2c(cc1-c1coc3c4c(c(OC)cc3c1=O)OC(C)(C)C=C4)OCO2	0.964
CC(C)=CCc1c(O)cc2occ(-c3ccc4c(c3)OCO4)c(=O)c2c1O	1.02
Fc1ccc(C(c2ccc(F)cc2)N2CCN(C/C=C/c3ccccc3)CC2)cc1	0.951
CSCCC(NC=O)C(=O)NC(CC(C)C)C(=O)NC(Cc1ccccc1)C(=O)O (centres undefined)	1.01
CC1(C)C=Cc2c(cc3occ(-c4ccc5c(c4)OCO5)c(=O)c3c2O)O1	0.97
CCCc1nc(C(C)(C)O)c(C(=O)OCc2oc(=O)oc2C)n1Cc1ccc(-c2ccccc2-c2nn[nH]n2)cc1	0.994
CCOc1nc2cccc(C(=O)OC(C)OC(=O)OC3CCCCC3)c2n1Cc1ccc(-c2ccccc2-c2nn[nH]n2)cc1 (centres undefined)	0.995
O=c1c(-c2ccc3c(c2)OCO3)coc2cc(O)ccc12	0.972
C/C=C(\C)C(=O)OC1[C@@H]2C=C3C4CC(=O)O[C@@H](c5ccoc5)[C@]4(C)CCC3[C@@](C)(C2=O)[C@@H](C(O)C(=O)OC)C1(C)C (some centres undefined)	1.02

Source of measurements: PubChem BioAssay AID1159580
